Test system: P-glycoprotein (human MDR1)
Test: MDCKII-hMDR1 monolayer permeability assay
Assay type: in vitro ADME
Conditions: dog, MDCK-MDR1
readout.type: Papp A→B (×10⁻⁶ cm/s)
Answer format: numeric, ×10⁻⁶ cm/s implied, no suffix.

[Q] Query: Papp A→B; subject: Cc1nc2c(N)ncnc2n1[C@@H]1O[C@H](CN(C)C/C=C\CN)[C@@H](O)[C@H]1O [Compound 1]
[A] 1.1

----------
Experiment: In vitro metabolic stability in hepatic microsomes, mouse
Assay type: in vitro ADME
Settings: male, CD-1, mouse
readout.type: half-life at 1 μM

[Q] Query: half-life at 1 μM; subject: Cc1nc2c(N)ncnc2n1[C@@H]1O[C@H](CN(C)C/C=C\CN)[C@@H](O)[C@H]1O [Compound 1]
[A] > 1.5 h

----------
Assay: In vitro metabolic stability in hepatic microsomes, human
Type: in vitro ADME
Settings: both
readout.type: half-life at 1 μM

[Q] Query: half-life at 1 μM; subject: Cc1nc2c(N)ncnc2n1[C@@H]1O[C@H](CN(C)C/C=C\CN)[C@@H](O)[C@H]1O
[A] > 1.5 h

Hello, the source for this data is paper PMC5511061, in case you need it.
